Each entry below carries its measured IC50, system: human PARP-1 (Homo sapiens, UniProt P09874).
Sequence (P09874 whole entry): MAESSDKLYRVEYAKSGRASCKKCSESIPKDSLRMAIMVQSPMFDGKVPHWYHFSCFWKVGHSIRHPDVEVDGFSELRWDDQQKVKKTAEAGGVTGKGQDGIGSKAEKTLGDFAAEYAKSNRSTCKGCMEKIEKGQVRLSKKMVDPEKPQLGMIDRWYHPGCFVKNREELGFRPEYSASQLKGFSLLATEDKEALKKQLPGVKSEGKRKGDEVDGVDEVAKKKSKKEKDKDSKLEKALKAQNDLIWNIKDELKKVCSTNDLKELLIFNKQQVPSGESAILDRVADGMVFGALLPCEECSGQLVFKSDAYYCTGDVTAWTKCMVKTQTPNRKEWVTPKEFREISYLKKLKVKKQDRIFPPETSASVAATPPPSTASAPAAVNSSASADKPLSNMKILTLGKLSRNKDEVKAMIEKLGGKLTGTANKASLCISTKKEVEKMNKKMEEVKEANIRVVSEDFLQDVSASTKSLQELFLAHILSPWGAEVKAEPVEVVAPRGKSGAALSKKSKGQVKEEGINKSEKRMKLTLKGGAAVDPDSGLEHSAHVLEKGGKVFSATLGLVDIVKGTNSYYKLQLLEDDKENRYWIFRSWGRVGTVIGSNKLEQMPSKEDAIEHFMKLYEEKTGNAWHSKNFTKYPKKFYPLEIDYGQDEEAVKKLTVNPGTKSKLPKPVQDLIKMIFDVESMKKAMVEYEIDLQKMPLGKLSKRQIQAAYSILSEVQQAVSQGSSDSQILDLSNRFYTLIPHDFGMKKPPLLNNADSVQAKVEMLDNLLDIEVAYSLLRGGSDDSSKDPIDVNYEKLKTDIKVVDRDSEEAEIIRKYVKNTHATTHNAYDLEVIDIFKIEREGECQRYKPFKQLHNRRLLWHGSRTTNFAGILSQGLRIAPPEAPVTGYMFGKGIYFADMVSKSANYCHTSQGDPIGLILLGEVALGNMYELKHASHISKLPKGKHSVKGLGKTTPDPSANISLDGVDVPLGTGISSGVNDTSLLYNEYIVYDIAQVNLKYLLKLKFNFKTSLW
The figure you give is taken to be in µM; do not add the unit.

Cn1cnc2nc(N)[nH]c(=O)c21 [7-methylguanine, 7-Methylguanine] :: 150

# ---- query molecule ----
Param item: CCn1cnc2[nH]c(N)nc(=O)c21 [7-ethylguanine, 7-Ethylguanine] ; param system: human PARP-1 (Homo sapiens, UniProt P09874); output IC50: 230

###

As a worked illustration, we turn to IC50 data collected for murine PARP-2 (Mus musculus, UniProt O88554).

Recorded results for 3 compounds are shown here.
Cn1cnc2[nH]c(=O)[nH]c(=O)c21 :: 160 µM
CCn1cnc2[nH]c(N)nc(=O)c21 :: 90 µM
Cn1cnc2nc(N)[nH]c(=O)c21 :: 50 µM

Then there is this compound:
Memo: "Cn1cnc2nc[nH]c(=O)c21" , reported IC50: 620 µM
